# assay.summary: Luminescence Cell-Based Dose Retest to Confirm Inhibitors of Cancer Stem Cells. [Related pubchem assays (depositor defined):AID2717, AID2721]
# Type: functional
# measurement.context: Homo sapiens
Calls of active or inactive are those of the source.
Exercise: state measured AC50 for each of the molecules provided.

For this molecule ( COc1ccc(C(=O)/C=C/c2ccc(OCc3ccccc3)cc2)cc1CSCC(=O)O ), measured AC50 is 5.79 µM (active)

// field: AC50; key: CC(=O)Nc1ccc(OCC(O)CN2CCN(c3cc(Cl)ccc3C)CC2)cc1 (stereo not given) ; value = 1.77 µM (active)

In plain terms, O=C(CN(c1ccc(Cl)cc1)S(=O)(=O)c1ccc(Cl)c([N+](=O)[O-])c1)NCCc1ccc(F)cc1 has a documented AC50 of 2.15 µM (active)

For record CC(=O)NC1=C(C#N)C(c2ccccc2)c2c(ccc3ccccc23)O1 (stereo not given) the listed AC50 is 0.733 µM (active)

Field AC50 (entry Cc1ccc(/C=C/C(=O)NCC2COc3ccccc3O2)o1 (stereo not given) ) reads 33.1 µM (active)

###

Assign EC50 to each entry below.
# assay.summary: Trypanosoma cruzi growth suppression in host cells – NIH3T3 host cells, beta-gal luminescence, confirmation (AID 2044);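 also: intracellular parasites grown in NIH/3T3 mouse fibroblasts as host cells; luminescent beta-galactosidase reporter signal from transgenic T. cruzi replicating inside host cells; inhibitors lower the luminescence signal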
# Type: functional, cell-based
Calls of active or inactive are those of the source.

Reported EC50 for COc1ccc(OC)c(N/C(C)=C/C(=O)c2ccccc2)c1 was 2490 nM (active)

Data point: C/C(CC1CC2=C(CC1(C)C)C(C)(C)CCC2)=N\NC(N)=S (centres undefined) ; EC50 = < 100 nM (active)

Recorded result, COc1ccc2cc3cc(C(=O)Nc4ccccc4N4CCN(C)CC4)oc3nc2c1 , EC50: 1650 nM (active)

O=S(=O)(c1ccc(NC(=S)NCCC(c2ccccc2)c2ccccc2)cc1)N1CCOCC1 has a reported EC50 of 1860 nM (active)

So, COc1ccc(C(=O)NC(=S)N2CCCCC2c2cccnc2)cc1OC (centres undefined) ? Its EC50 was 1320 nM (active)

get_value(item= Cc1cc(Br)c(Cl)cc1NC(=O)CN1C(=O)C2C3CC(c4ccccc4)C(C3)C2C1=O (centres undefined) , readout=EC50) returns 2590 nM (active)

Please fill in: EC50 reported for CN(Cc1ccccc1)C1=CC(=[N+]2CCCCC2)CC(C)(C)C1 = < 100 nM (active)

Record CCOc1c(Cl)cc(CNc2ccc(N3CCCC3)cc2)cc1OC , field EC50: 4980 nM (active)

Per the records, this molecule ( Cc1cc(Cl)ccc1OCc1nc(-c2ccncc2)no1 ) has EC50 equal to 2430 nM (active)

###

# measured.on: 72 kDa type IV collagenase (Homo sapiens, UniProt P08253)
# Sequence (P08253 whole entry): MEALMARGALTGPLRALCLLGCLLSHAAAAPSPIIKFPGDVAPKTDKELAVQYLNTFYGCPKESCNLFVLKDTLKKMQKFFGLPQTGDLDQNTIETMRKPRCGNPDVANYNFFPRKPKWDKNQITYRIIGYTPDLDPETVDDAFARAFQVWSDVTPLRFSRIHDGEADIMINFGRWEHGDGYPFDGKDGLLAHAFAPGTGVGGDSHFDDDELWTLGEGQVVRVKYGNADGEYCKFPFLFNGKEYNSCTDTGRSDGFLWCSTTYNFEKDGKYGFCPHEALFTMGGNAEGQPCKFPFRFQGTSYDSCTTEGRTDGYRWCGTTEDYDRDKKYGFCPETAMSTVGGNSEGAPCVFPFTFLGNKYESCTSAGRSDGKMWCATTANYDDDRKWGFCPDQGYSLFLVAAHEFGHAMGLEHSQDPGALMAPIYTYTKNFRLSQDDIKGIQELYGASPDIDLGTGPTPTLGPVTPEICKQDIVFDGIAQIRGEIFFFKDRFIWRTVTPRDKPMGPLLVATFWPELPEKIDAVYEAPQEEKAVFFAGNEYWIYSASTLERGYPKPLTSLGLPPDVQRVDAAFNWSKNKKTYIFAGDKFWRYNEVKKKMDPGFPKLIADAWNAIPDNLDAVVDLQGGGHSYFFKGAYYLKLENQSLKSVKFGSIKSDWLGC
# assay.summary: Dose Response validation of uHTS RPN11 inhibitor hits using a MMP-2 Fluorescence assay.
# Type: functional
Activity calls are given as the source filed them.
Choose the fitting class; nothing outside active, inactive is accepted.

query: Could you kindly confirm the outcome this assay logged for CCc1ccc(-n2cccc2/C=C2/C(=N)N3C(=NC2=O)SN=C3S(C)(=O)=O)cc1 ?
result: active

query: Outcome? Cc1cc(N=Nc2ccccc2C(=O)O)c(C)c(C)c1O
result: active

query: Could you check what this test reported for COc1cc(/C=N/NC(=O)c2cccnc2)ccc1OCC(=O)Nc1ccccc1Cl ?
result: inactive

query: Hello, I am checking results. What call was entered for COc1ccc2nc(N3C(=O)/C(=C/c4ccc(Cl)cc4)NC3=S)sc2c1 ?
result: active

query: Assay result, entry CCc1nc2oc3ccccc3c(=O)c2c(=O)n1-c1ccc(C)cc1 — outcome?
result: inactive

query: What was the test verdict on CCOc1ccc2nc(NC(=O)Cn3[nH]c(=O)c4ccccc4c3=O)sc2c1 ?
result: inactive
